- Test system: CEM cells HIV-1 protection, formazan growth assay
- assay_info: NCI AIDS Antiviral Assay
The source made the active and inactive calls.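 Rule for the calls: active = compounds giving half or more protection of infected cells from virus-caused growth loss, again on retest; inactive = the rest.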 Where a SMILES comes first, the peptide text is derived from it. The star is where a group is joined. Cbz = O=C(OCc1ccccc1)*
reported_endpoint: outcome

// worked examples, outcome included
{"compound": "O=C1C2C=CC1C1C(=O)OC(=O)C21 (stereo not given)", "outcome": "inactive"}
{"compound": "CCC12CCCN3CCC4(C(=Nc5cc(OC)ccc54)CC1)C32 (stereo not given)", "outcome": "inactive"}
{"compound": "CC1=C(c2cc(C(=O)Nc3cccc(Cl)c3)nc(NC#N)n2)Sc2ccccc2N1", "outcome": "inactive"}
{"compound": "Cc1cc2cc3ccc4cccc5ccc(c2oc1=O)c3c45", "outcome": "inactive"}
{"compound": "COC(=O)CNC(=O)C(CC(C)C)NC(=O)C(CC(C)C)NC(=O)C(C)NC(=O)OCc1ccccc1 (stereo not given) (Cbz-ALLG-OMe; configuration not given here)", "outcome": "inactive"}
{"compound": "CC(O)C(O)C(O)C(O)c1nc2ccccc2[nH]1 (stereo not given)", "outcome": "inactive"}
{"compound": "Cc1ccc(-n2nc(C(OC3OC(CO)C(O)C(O)C3O)C(O)CO)c3nc4cc(C)c(C)cc4nc32)cc1 (stereo not given)", "outcome": "inactive"}
{"compound": "COc1ccc2nc(NC(=O)C(=O)C(C#N)c3ccc(CC#N)cc3)sc2c1 (stereo not given)", "outcome": "inactive"}
{"compound": "CC(C)(C)/C(CC(=O)CCC(=O)Nc1ccc(Cl)cc1)=N\\NC(N)=S", "outcome": "inactive"}

// next entry
Query: Requested field: outcome. Item: CCCCOC(=O)C1CN2C(=NC1(C(F)(F)F)C(F)(F)F)Sc1ccccc12 (stereo not given)
Response: inactive

---

- Tested on: CEM cells HIV-1 protection, formazan growth assay
- assay_info: NCI AIDS Antiviral Assay;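 active means compounds giving half or more protection of infected cells from virus-caused growth loss, again on retest; inactive means the rest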
Your response should consist of one outcome taken from Y = active, N = inactive

Answered cases to consult:
{"compound": "CC1(C)OP(=O)(c2ccccc2)C=C1Sc1ccc([N+](=O)[O-])cc1[N+](=O)[O-] (stereo not given)", "target_or_system": "CEM cells HIV-1 protection, formazan growth assay", "answer_label": "Y"}
{"compound": "OC(C1CCCCCCCCCC1)C(O)C1CCCCCCCCCC1 (stereo not given)", "target_or_system": "CEM cells HIV-1 protection, formazan growth assay", "answer_label": "N"}
{"compound": "CC1(C)OC(=O)C(C#N)=C1C[n+]1ccccc1", "target_or_system": "CEM cells HIV-1 protection, formazan growth assay", "answer_label": "N"}
{"compound": "O=S(=O)(F)c1cc(Cl)ccc1C[P+](c1ccccc1)(c1ccccc1)c1ccccc1", "target_or_system": "CEM cells HIV-1 protection, formazan growth assay", "answer_label": "N"}

Continue with the compound presented below.
Query: // param item: Cc1cnc([C@H]2CCC3[C@@H]4CC=C5C[C@@H](OC(=O)CCC(=O)O)CC[C@]5(C)C4CC[C@@]32C)s1 (stereo not given in full) ; yields the recorded call
Response: N

---

- Test system: CEM cells HIV-1 protection, formazan growth assay
- assay_info: NCI AIDS Antiviral Assay
- measurement_setup: measured here: growth of uninfected CEM cells
reported_endpoint: log10(IC50) (log10 of the value in µM)
Values are log10 of IC50 in µM.

// worked examples, log10(IC50) included
{"compound": "Cc1ccc(-c2nc3scc(C)n3n2)cc1", "value_reported": 2.26}
{"compound": "C/C(CC(=O)Nc1cccc([N+](=O)[O-])c1)=N\\NC(=O)CC#N", "value_reported": 2.65}
{"compound": "Cc1c2c(c(C)c3c[n+](C)ccc13)Oc1ccccc1O2", "value_reported": 0.57}

Query: Requested field: log10(IC50). Item: Cc1ccc(Nc2nc(NS(=O)(=O)c3cc(C)c(Cl)cc3S)n[nH]2)cc1
Response: 2.25

Query: Requested field: log10(IC50). Item: O=Nc1ccc2ccccc2c1N=Nc1ccccc1C(=O)O
Response: 2.26

Query: Requested field: log10(IC50). Item: C=C(C)COc1cc(NC(=S)OC(C)C)ccc1Cl
Response: 0.68

Query: Requested field: log10(IC50). Item: Clc1cc(N/N=C(\c2ccccc2)c2ccccn2)ncn1
Response: -1.20

Query: Requested field: log10(IC50). Item: NC1CC(=O)c2sc(I)cc21 (stereo not given)
Response: 2.01

Query: Requested field: log10(IC50). Item: CC1(C)OC(=O)c2cc(C(=CC=O)c3cc(Cl)c4c(c3)C(=O)OC(C)(C)O4)cc(Cl)c2O1
Response: 1.56

Query: Requested field: log10(IC50). Item: S=C1CC(c2ccc(Cl)cc2)Sc2ccccc2N1 (stereo not given)
Response: 2.14
